Recorded values, source ChEMBL document CHEMBL5357053.

- EXPERIMENT_SUMMARY: Antiproliferative activity against human SCMC cells assessed as inhibition of cell viability measured after 72 hrs by IncuCyte live-cell imaging assay
- Assay type: functional, cell-based
pIC50: −log10 of the molar value.
PROPERTY_MEASURED: pIC50

1. COC1=C(C)C(=O)c2c(cn(C)c(=O)c2NCCS(=O)(=O)Oc2c(C)c(OC)c(O)c3c[n+](C)ccc23)C1=O	5.14
2. COC(=O)c1cc2c(OS(=O)(=O)CCNc3c4c(cn(C)c3=O)C(=O)C(OC)=C(C)C4=O)c(C)c(OC)c(O)c2c[n+]1C	4.96
3. COC1=C(C)C(=O)c2c(cn(C)c(=O)c2NCCS(=O)(=O)Oc2c(C)c(OC)c(O)c3c[n+](C)c(C(=O)O)cc23)C1=O	5.13
